Test system: Liver tissue
Test: Liver tissue disaggregation by 1% surfactant with or without Proteinase K at 60° C.
Details: Fifteen Minutes Incubation, 60° C., 1% surfactant, Proteinase K present (Y)
ENDPOINT LABEL: Tissue Disaggregation

MOLECULE: CCCCCCCCCCCC[N+](C)(C)C.[Br-] [DTAB, dodecyltrimethylammonium bromide]
SYSTEM: Liver tissue
VAL: 2

MOLECULE: CCCCCCCC/C=C\CCCCCCCC[N+](C)(C)Cc1ccccc1.[Cl-] [Mackernium KP, olealkonium chloride]
SYSTEM: Liver tissue
VAL: 1

MOLECULE: CCCCCCCCCCCCCCCC[N+](C)(C)C.[Br-] [Hexadecyltrimethylammonium bromide, hexadecyltrimethylammonium bromide]
SYSTEM: Liver tissue
VAL: 0

MOLECULE: CCCCCCCCCCCC[N+](C)(C)Cc1ccccc1.[Br-] [Benzyldimethyldodecylammonium bromide]
SYSTEM: Liver tissue
VAL: 0

MOLECULE: CCCCCCCCCCCCCCCCCC[N+](C)(C)Cc1ccccc1.[Cl-] [Mackernium SDC-85, Stearalkonium chloride]
SYSTEM: Liver tissue
VAL: 3

MOLECULE: CCCCCCCCCCCCCC[N+](C)(C)Cc1ccccc1.[Cl-]
SYSTEM: Liver tissue
VAL: 0

MOLECULE: CCCCCCCCCCCCCCCC[N+](C)(C)Cc1ccccc1.[Br-] [Benzyldimethylhexadecylammonium bromide]
SYSTEM: Liver tissue
VAL: 0

MOLECULE: CCCCCCCCCCCCCC[N+](C)(C)C.[Br-] [TTAB, tetradecyltrimethylammonium bromide]
SYSTEM: Liver tissue
VAL: 0

MOLECULE: CCCCCCCCCCCCOS(=O)(=O)[O-].[Na+] [SDS, sodium dodecyl sulfate]
SYSTEM: Liver tissue
VAL: 3

MOLECULE: CCCCCCCCCCCCCCCC[N+](C)(C)C.[Br-] [CTAB, cetyltrimethylammonium bromide]
SYSTEM: Liver tissue
VAL: 4

====

System: slices of liver
Assay: Maceration of liver slices by reaction compositions at 65° C.
Details: 1 mg/ml Proteinase K, 1 hr, 65° C., additive 0.1%
Method: Initially, a series of reaction compositions were analyzed for their ability to disaggregate a biological sample, e.g., slices of liver. These reaction compositions comprised 100 mM Tris, pH 8.0, 20 mM dithiothreitol (DTT), and optionally,1 mg/ml Proteinase K, surfactants (e.g., cationic, nonionic and anionic detergents), chaotropes, or the additive 1-methyl-2-pyrollidinone (Sigma). Each reaction compositions was placed in a tube with a slice of liver and then incubated at 65° C. […]
Parameter: maceration of liver slice. Scope: all listed entries.

COMPOUND: CCCCCCCCCCCCCCCC[N+](C)(C)C.[Br-] [CTAB, cetyltrimethylammonium bromide]
maceration of liver slice [%]: 100

COMPOUND: C[C@H](CCC(=O)NCC(=O)O)[C@H]1CC[C@H]2[C@@H]3[C@H](O)C[C@@H]4C[C@H](O)CC[C@]4(C)[C@H]3C[C@H](O)[C@]12C [Glycocholic Acid]
maceration of liver slice [%]: 0

COMPOUND: CCCCC(CC)COS(=O)(=O)[O-].[Na+] (stereo not drawn) [NiaProof Type 8]
maceration of liver slice [%]: 0

COMPOUND: C[C@H](CCC(=O)NCCS(=O)(=O)O)[C@H]1CC[C@H]2[C@@H]3[C@H](O)C[C@@H]4C[C@H](O)CC[C@]4(C)[C@H]3CC[C@]12C [Taurochenodeoxycholic Acid]
maceration of liver slice [%]: 0

COMPOUND: C[C@H](CCC(=O)O)[C@H]1CC[C@H]2[C@@H]3[C@H](O)C[C@@H]4C[C@H](O)CC[C@]4(C)[C@H]3CC[C@]12C [Chenodeoxycholic Acid]
maceration of liver slice [%]: 0

COMPOUND: C[C@H](CCC(=O)NCCS(=O)(=O)O)[C@H]1CC[C@H]2[C@@H]3CC[C@@H]4C[C@H](O)CC[C@]4(C)[C@H]3C[C@H](O)[C@]12C [Taurodeoxycholic Acid]
maceration of liver slice [%]: 0
